Target sequence: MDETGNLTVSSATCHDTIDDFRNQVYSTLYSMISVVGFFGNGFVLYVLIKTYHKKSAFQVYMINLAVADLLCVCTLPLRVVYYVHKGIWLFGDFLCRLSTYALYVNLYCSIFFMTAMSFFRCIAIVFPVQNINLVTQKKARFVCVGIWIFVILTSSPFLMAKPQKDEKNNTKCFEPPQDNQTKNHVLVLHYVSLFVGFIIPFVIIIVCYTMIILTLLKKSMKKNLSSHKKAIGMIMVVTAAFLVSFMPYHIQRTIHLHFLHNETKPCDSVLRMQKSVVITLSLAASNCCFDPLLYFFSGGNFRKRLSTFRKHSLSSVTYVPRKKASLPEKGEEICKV
RESULT_TYPE: Ki (nM)
# unit: nM | format: bare number

Query: Ki lookup needed for O=C(O)c1cc(-c2ccc(C3CCNCC3)cc2)c2ccc(-c3ccc(C(F)(F)F)cc3)cc2c1 [PPTN] , thanks.
Response: 230
